# Subject of test: T1, Cdc13p full-length (Saccharomyces cerevisiae, UniProt P32797 1-924)
# T1 sequence: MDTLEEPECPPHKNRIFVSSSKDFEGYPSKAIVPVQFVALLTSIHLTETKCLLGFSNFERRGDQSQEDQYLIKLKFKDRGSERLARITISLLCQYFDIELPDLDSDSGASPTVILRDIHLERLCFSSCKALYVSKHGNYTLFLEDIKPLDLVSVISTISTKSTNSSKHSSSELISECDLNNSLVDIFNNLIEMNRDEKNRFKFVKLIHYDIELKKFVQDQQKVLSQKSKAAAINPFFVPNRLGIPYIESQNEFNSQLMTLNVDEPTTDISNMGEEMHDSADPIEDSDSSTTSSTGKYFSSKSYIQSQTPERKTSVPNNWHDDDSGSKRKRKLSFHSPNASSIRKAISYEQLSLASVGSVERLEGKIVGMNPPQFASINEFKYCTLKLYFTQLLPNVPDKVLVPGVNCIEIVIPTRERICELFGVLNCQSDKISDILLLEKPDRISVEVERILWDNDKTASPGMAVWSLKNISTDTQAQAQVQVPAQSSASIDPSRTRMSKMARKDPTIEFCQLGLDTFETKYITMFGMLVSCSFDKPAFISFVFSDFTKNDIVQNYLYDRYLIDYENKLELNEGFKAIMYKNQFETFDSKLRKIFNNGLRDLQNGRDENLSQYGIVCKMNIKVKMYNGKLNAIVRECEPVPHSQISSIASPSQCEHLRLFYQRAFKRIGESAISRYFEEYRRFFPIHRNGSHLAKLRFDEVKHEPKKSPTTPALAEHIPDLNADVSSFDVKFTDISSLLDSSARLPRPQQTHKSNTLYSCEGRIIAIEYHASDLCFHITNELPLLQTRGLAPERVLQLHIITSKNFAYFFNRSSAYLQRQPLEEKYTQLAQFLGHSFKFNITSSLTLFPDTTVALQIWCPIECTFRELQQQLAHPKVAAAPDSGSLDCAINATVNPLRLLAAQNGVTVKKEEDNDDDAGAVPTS
# Test description: EMSA
pKd: −log10 of the molar value.
We use 9 as the dividing line for pKd: on or above the line is rule met, below is rule not met.

Worked cases, answers included:
> print(dat)
                              binder   label.class
1         GTGTCTGTCTG (ssDNA) [TEL*]  rule not met
2  GTGTCTGTCTGGGG (ssDNA) [TEL*-GGG]  rule not met
3          GTGTGGGTGTG (ssDNA) [TEL]      rule met

Req: Decide: pKd of GTGTCTGTCTGAAAAAAAAAA (ssDNA) [TEL*-a10] >= 9?
Resp: rule not met
